Source: patent US20230265151A1

- targetUnderTest: human glucagon receptor (human, UniProt P47871 26-477)
- protocolSummary: cell-based or functional assay
readoutKind: cAMP EC50 (1.0% HSA)

Look over these answered cases.
• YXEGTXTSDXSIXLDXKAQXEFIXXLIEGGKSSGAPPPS (Aib2, αMeF(2F)6, hTyr10, αMeL13, Orn16, Aib20, D-Glu24, αMeY25; acylated K17, K31 (groups as in name); C-terminal amide) = > 9.95 µM
• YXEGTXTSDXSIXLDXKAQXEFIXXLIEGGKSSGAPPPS (Aib2, αMeF(2F)6, Ac5c10, αMeL13, Orn16, Aib20, D-Glu24, αMeY25; acylated K17, K31 (groups as in name); C-terminal amide) = > 9.95 µM

# next binder below
Form field cAMP EC50 (1.0% HSA), entry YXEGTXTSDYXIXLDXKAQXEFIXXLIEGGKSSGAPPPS (Aib2, αMeF(2F)6, Aib11, αMeL13, Orn16, Aib20, D-Glu24, αMeY25; acylated K17, K31 (groups as in name); C-terminal amide) : > 9.95 µM
